Test: Oral bioavailability in CD rat at 15 mg/kg by LC-MS/MS analysis
Type: ADME, organism-based
Conditions: in vivo
measured-parameter: bioavailability (%)

P: Cc1ccc(C(=O)Nc2cc(-n3ccnc3)cc(C(F)(F)F)c2)cc1C#Cc1cnc2c(N)cccn12
Q: Cc1ccc(C(=O)Nc2ccc(CN3CCN(CCO)CC3)c(C(F)(F)F)c2)cc1C#Cc1cnc2cccnn12
Exercise: From the items above, decide which of P and Q has the lower bioavailability reading. Your choice should be expressed through its label.
Key: P
(P: 5.5%, Q: 22.3%)

I: Cc1ccc(C(=O)Nc2ccc(CN3CCN(C)CC3)c(C(F)(F)F)c2)cc1C#Cc1cnc2[nH]ccc2c1
II: Cc1ccc(C(=O)Nc2ccc(CN3CCN(C)CC3)c(C(F)(F)F)c2)cc1C#Cc1cnc2ccccn12
Exercise: Between these two entries, I and II , state which has the higher bioavailability. Kindly give the label for the entry you pick.
Key: II

----------
Assay: Volume of distribution in CD rat at 5 mg/kg, iv by LC-MS/MS analysis
Assay type: ADME, organism-based
Design: dose 5 mg/kg, route intravenous
Details: in vivo
measured-parameter: Vd (L/kg)

a: Cc1ccc(C(=O)Nc2ccc(CN3CCN(C)CC3)c(C(F)(F)F)c2)cc1C#Cc1cnc2nc[nH]c2c1
b: Cc1ccc(C(=O)Nc2cc(-n3ccnc3)cc(C(F)(F)F)c2)cc1C#Cc1cnc2c(N)cccn12
Exercise: Consider entries a and b . Which has the numerically lower Vd? Output the label that corresponds to your choice.
Key: b

P: Cc1ccc(C(=O)Nc2cc(-n3ccnc3)cc(C(F)(F)F)c2)cc1C#Cc1cnc2ccccn12
Q: CN1CCN(Cc2ccc(NC(=O)c3ccc(F)c(C#Cc4cnc5cccnn45)c3)cc2C(F)(F)F)CC1
Exercise: Of the two listed items, P and Q , which carries the larger Vd figure? API: response body contains the label of the selected item.
Key: Q

----------
Assay: Half life in CD rat at 15 mg/kg, po by LC-MS/MS analysis
Assay type: ADME, organism-based
Design: dose 15 mg/kg, route oral
Conditions: in vivo
measured-parameter: half-life (h)

Study these solved cases before continuing.
Cc1ccc(C(=O)Nc2ccc(CN3CCN(CCO)CC3)c(C(F)(F)F)c2)cc1C#Cc1cnc2cccnn12
3.4
Cc1ccc(C(=O)Nc2ccc(CN3CCN(C)CC3)c(C(F)(F)F)c2)cc1C#Cc1cnc2[nH]ccc2c1
14.3
CCN1CCN(Cc2ccc(NC(=O)c3ccc(C)c(C#Cc4cnc5cccnn45)c3)cc2C(F)(F)F)CC1
22.3
CN1CCN(Cc2ccc(NC(=O)c3ccc(F)c(C#Cc4cnc5cccnn45)c3)cc2C(F)(F)F)CC1
11.6
Cc1ccc(C(=O)Nc2ccc(CN3CCN(C)CC3)c(C(F)(F)F)c2)cc1C#Cc1cnc2ccccn12
24.7

A: Cc1ccc(C(=O)Nc2ccc(CN3CCN(C)CC3)c(C(F)(F)F)c2)cc1C#Cc1cnc2cnccn12
B: Cc1ccc(C(=O)Nc2ccc(CN3CCN(C)CC3)c(C(F)(F)F)c2)cc1C#Cc1cnc2cccnn12 [PONATINIB]
Exercise: Given A and B , report the one with the higher recorded half-life. Reply briefly: the label of your chosen item.
Key: B

----------
Assay: Volume of distribution in CD rat at 5 mg/kg, iv by LC-MS/MS analysis
Type: ADME, organism-based
Set-up: dose 5 mg/kg, route intravenous
Settings: in vivo
measured-parameter: Vd (L/kg)

Recorded results for 5 compounds are shown here.
Cc1ccc(C(=O)Nc2ccc(CN3CCN(C)CC3)c(C(F)(F)F)c2)cc1C#Cc1cnc2cnccn12
14.7
Cc1ccc(C(=O)Nc2ccc(CN3CCN(C)CC3)c(C(F)(F)F)c2)cc1C#Cc1cnc2cccnn12 [PONATINIB]
9.7
Cc1ccc(C(=O)Nc2ccc(CN3CCN(C)CC3)c(C(F)(F)F)c2)cc1C#Cc1cnc2ccccn12
11
Cc1ccc(C(=O)Nc2ccc(CN3CCN(CCO)CC3)c(C(F)(F)F)c2)cc1C#Cc1cnc2cccnn12
7.7
CN1CCN(Cc2ccc(NC(=O)c3ccc(Cl)c(C#Cc4cnc5cccnn45)c3)cc2C(F)(F)F)CC1
16.7

P: CCN1CCN(Cc2ccc(NC(=O)c3ccc(C)c(C#Cc4cnc5cccnn45)c3)cc2C(F)(F)F)CC1
Q: Cc1ccc(C(=O)Nc2ccc(CN3CCN(C)CC3)c(C(F)(F)F)c2)cc1C#Cc1cnc2[nH]ccc2c1
Exercise: // max by Vd over [ P , Q ] Lab log: write the label of the selected item as the result.
Key: Q

----------
Test: Tmax in CD rat at 15 mg/kg, po by LC-MS/MS analysis
Assay type: ADME, organism-based
Design: dose 15 mg/kg, route oral
Settings: in vivo
measured-parameter: Tmax (h)

Some molecules with known Tmax results, for comparison:
Cc1ccc(C(=O)Nc2ccc(CN3CCN(C)CC3)c(C(F)(F)F)c2)cc1C#Cc1cnc2cnccn12
4
Cc1ccc(C(=O)Nc2ccc(CN3CCN(CCO)CC3)c(C(F)(F)F)c2)cc1C#Cc1cnc2cccnn12
4
CN1CCN(Cc2ccc(NC(=O)c3ccc(F)c(C#Cc4cnc5cccnn45)c3)cc2C(F)(F)F)CC1
6
Cc1ccc(C(=O)Nc2ccc(CN3CCN(C)CC3)c(C(F)(F)F)c2)cc1C#Cc1cnc2[nH]ccc2c1
6

I: Cc1ccc(C(=O)Nc2ccc(CN3CCN(C)CC3)c(C(F)(F)F)c2)cc1C#Cc1cnc2ccccn12
II: Cc1ccc(C(=O)Nc2cc(-n3ccnc3)cc(C(F)(F)F)c2)cc1C#Cc1cnc2c(N)cccn12
Exercise: // which entry has the larger Tmax value, I or II ? Pick one and reply with its label.
Key: I
(I: 6 h, II: 1 h)

----------
Assay: Clearance in CD rat at 5 mg/kg, iv by LC-MS/MS analysis
Type: ADME, organism-based
Design: dose 5 mg/kg, route intravenous
Details: in vivo
measured-parameter: clearance (mL/min/kg)

For orientation, consider the following solved cases.
Cc1ccc(C(=O)Nc2ccc(CN3CCN(C)CC3)c(C(F)(F)F)c2)cc1C#Cc1cnc2nc[nH]c2c1
34
CN1CCN(Cc2ccc(NC(=O)c3ccc(Cl)c(C#Cc4cnc5cccnn45)c3)cc2C(F)(F)F)CC1
19.7
Cc1ccc(C(=O)Nc2cc(-n3ccnc3)cc(C(F)(F)F)c2)cc1C#Cc1cnc2c(N)cccn12
6

A: Cc1ccc(C(=O)Nc2cc(-n3ccnc3)cc(C(F)(F)F)c2)cc1C#Cc1cnc2ccccn12
B: Cc1ccc(C(=O)Nc2ccc(CN3CCN(C)CC3)c(C(F)(F)F)c2)cc1C#Cc1cnc2cnccn12
Exercise: Lower value of clearance belongs to which: A or B ? # respond with the chosen item's label
Key: A

A: Cc1ccc(C(=O)Nc2ccc(CN3CCN(C)CC3)c(C(F)(F)F)c2)cc1C#Cc1cnc2[nH]ccc2c1
B: Cc1ccc(C(=O)Nc2ccc(CN3CCN(C)CC3)c(C(F)(F)F)c2)cc1C#Cc1cnc2ccccn12
Exercise: Dear colleague, could you let me know whether A or B has the lower recorded clearance? Thanks. Reply with the label of the item you choose.
Key: B

----------
Tested on: Mus musculus
Assay: Plasma concentration in mouse at 30 mg/kg, po after 24 hrs by LC-MS/MS analysis
measured-parameter: concentration at 24 h (ng/mL)

a: CCN1CCN(Cc2ccc(NC(=O)c3ccc(C)c(C#Cc4cnc5cccnn45)c3)cc2C(F)(F)F)CC1
b: CN1CCN(Cc2ccc(NC(=O)c3ccc(F)c(C#Cc4cnc5cccnn45)c3)cc2C(F)(F)F)CC1
Exercise: Smaller concentration at 24 h value? Options are a and b Your choice should be expressed through its label.
Key: a
(a: 8.8 ng/mL, b: 163 ng/mL)

----------
Assay: Cmax in mouse at 30 mg/kg, po by LC-MS/MS analysis
Settings: in vivo
measured-parameter: Cmax (ng/mL)

Cc1ccc(C(=O)Nc2ccc(CN3CCN(C)CC3)c(C(F)(F)F)c2)cc1C#Cc1cnc2ccccn12
986
Cc1ccc(C(=O)Nc2ccc(CN3CCN(C)CC3)c(C(F)(F)F)c2)cc1C#Cc1cnc2cnccn12
521

1: Cc1ccc(C(=O)Nc2ccc(CN3CCN(CCO)CC3)c(C(F)(F)F)c2)cc1C#Cc1cnc2cccnn12
2: CN1CCN(Cc2ccc(NC(=O)c3ccc(Cl)c(C#Cc4cnc5cccnn45)c3)cc2C(F)(F)F)CC1
Exercise: Which entry shows the lesser value of Cmax here, 1 or 2 ? API: response body contains the label of the selected item.
Key: 2

----------
Test: AUC (0 to 24 hrs) in mouse at 30 mg/kg, po by LC-MS/MS analysis
Details: plasma
measured-parameter: AUC(0-t) at 24 h (ng·h/mL)

P: Cc1ccc(C(=O)Nc2ccc(CN3CCN(CCO)CC3)c(C(F)(F)F)c2)cc1C#Cc1cnc2cccnn12
Q: Cc1ccc(C(=O)Nc2ccc(CN3CCN(C)CC3)c(C(F)(F)F)c2)cc1C#Cc1cnc2cnccn12
Exercise: Of P and Q , which shows the smaller AUC(0-t) at 24 h value? // respond with label for picked entry
Key: Q
(Q: 2690 ng·h/mL, P: 13700 ng·h/mL)

A: Cc1ccc(C(=O)Nc2ccc(CN3CCN(C)CC3)c(C(F)(F)F)c2)cc1C#Cc1cnc2ccccn12
B: CN1CCN(Cc2ccc(NC(=O)c3ccc(Cl)c(C#Cc4cnc5cccnn45)c3)cc2C(F)(F)F)CC1
Exercise: Sort A and B by AUC(0-t) at 24 h descending and give the first. Your choice should be expressed through its label.
Key: A
